target: dopamine D2 receptor (Mus musculus, UniProt P61168); construct: from tissue; host or cells: striatum of homozygous transgenic (TgX15, chakragati) mice and normal heterozygous litter-mates; assay: Radioligand binding assay of dopamine D2 receptor binding sites in striatum; settings: striata of homozygous transgenic mice; mean ± s.e.m.; read-out: KD (dissociation constant between ligand and receptor)
Sequence (P61168 whole entry): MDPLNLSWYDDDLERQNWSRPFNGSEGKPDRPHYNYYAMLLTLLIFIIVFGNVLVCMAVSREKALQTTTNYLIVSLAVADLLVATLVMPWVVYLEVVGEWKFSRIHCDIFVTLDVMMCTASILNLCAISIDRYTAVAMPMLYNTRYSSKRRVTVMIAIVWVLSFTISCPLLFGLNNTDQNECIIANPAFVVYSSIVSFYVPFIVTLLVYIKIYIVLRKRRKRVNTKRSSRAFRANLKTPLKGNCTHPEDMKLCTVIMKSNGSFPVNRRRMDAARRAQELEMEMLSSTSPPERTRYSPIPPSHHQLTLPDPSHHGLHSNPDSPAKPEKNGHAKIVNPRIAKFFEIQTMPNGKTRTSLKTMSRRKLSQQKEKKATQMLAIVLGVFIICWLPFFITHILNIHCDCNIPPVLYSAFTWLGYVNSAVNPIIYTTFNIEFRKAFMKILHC
reported-property: pKd
In textbook form, pKd equals minus log to base ten of the concentration in mol/L.

Item CN1CN(c2ccccc2)C2(CCN(CCCC(=O)c3ccc(F)cc3)CC2)C1=O has what recorded pKd?
10.09

Value source: patent US5723719A
